Data credit: patent US20210388107A1

target: T1, human SIRPαBIT expressed on cells (human, UniProt P78324 31-504); experiment: flow cytometry, ExpiCHO-S cells
T1 construct: endogenous on U937 cells or transiently expressed on ExpiCHO-S cells; in the SHP-1 assay a ProLink-tagged form on Jurkat cells; also called huSIRPαBIT; U937 cells (huSIRPαBIT)
T1 sequence (P78324 31-504 limits assumed): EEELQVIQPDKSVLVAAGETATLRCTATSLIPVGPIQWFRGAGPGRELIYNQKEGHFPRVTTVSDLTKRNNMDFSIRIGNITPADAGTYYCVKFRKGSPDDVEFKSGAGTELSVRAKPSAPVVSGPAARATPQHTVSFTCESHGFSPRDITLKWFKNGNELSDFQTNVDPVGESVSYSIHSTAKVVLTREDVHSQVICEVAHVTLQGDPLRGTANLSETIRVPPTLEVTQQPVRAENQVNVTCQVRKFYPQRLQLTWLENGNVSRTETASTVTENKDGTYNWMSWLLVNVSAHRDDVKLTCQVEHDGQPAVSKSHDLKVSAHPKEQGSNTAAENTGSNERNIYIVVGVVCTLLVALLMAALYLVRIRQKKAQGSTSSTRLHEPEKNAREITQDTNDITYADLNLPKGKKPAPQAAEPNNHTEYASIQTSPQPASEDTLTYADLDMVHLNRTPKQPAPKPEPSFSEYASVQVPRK
The reader will find reported EC50 values listed item by item below.

binder	EC50 (µg/mL)
humanized anti-SIRPα antibody 11 (antibody, human IgG1, kappa, L234A L235A, V domains shown, human IgG1 LALA, kappa; also called mAb 11) VH: RQLVESGGGLVQPGGSLRLSCAASGFSLSSHGISWVRQAPGKGLEWVGTIGTGVITYYASWAKGRFTGSKTSSTAYLQMTSLRAEDTAVYYCARGSAWNDPFDYWGQGTLVTVSS VL: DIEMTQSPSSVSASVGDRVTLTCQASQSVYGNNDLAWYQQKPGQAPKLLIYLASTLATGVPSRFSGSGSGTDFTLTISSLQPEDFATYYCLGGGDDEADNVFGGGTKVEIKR	0.08
humanized anti-SIRPα antibody 5 (antibody, human IgG1, kappa, L234A L235A, V domains shown, human IgG1 LALA, kappa; also called mAb 5) VH: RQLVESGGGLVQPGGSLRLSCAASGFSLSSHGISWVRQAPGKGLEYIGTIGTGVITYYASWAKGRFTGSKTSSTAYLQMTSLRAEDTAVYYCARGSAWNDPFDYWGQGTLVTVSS VL: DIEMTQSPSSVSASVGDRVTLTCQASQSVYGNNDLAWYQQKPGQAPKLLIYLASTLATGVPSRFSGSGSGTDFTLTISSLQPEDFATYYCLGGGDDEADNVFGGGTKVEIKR	0.12
humanized anti-SIRPα antibody 9 (antibody, human IgG1, kappa, L234A L235A, V domains shown, human IgG1 LALA, kappa; also called mAb 9) VH: RQLVESGGGLVQPGGSLRLSCAASGFSLSSHGISWVRQAPGKGLEWVGTIGTGVITYYASWAKGRFTGSKTSSTAYLQMTSLRSEDTAVYYCARGSAWNDPFDYWGQGTLVTVSS VL: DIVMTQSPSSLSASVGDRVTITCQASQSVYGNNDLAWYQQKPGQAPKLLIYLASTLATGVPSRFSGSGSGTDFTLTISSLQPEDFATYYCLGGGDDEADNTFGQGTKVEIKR	0.11
humanized anti-SIRPα antibody 10 (antibody, human IgG1, kappa, L234A L235A, V domains shown, human IgG1 LALA, kappa; also called mAb 10) VH: RQLVESGGGLVQPGGSLRLSCAASGFSLSSHGISWVRQAPGKGLEWVGTIGTGGITYYASWAKGRFTGSKTSSTAYMELSSLRAEDTAVYYCARGSAWNDPFDIWGQGTLVTVSS VL: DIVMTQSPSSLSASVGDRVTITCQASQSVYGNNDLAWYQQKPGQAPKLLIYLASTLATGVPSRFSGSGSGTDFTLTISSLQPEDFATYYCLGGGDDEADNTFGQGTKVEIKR	0.3
